Hey, just so you know, these numbers are from patent US10202593B2.

- System: LPESG (Abz-LPESGK(Dnp)-CONH2)
- EXPERIMENTAL DETAILS: In vitro sortase kinetics HPLC assay, LPESG substrate;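 note: KH hydrolysis constant in µM from GGG titration at fixed substrate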
- Type: biochemical
- STATED CONDITIONS: 1 mM 4S (LPESG) substrate
EXPERIMENTAL READOUT: Khydrolysis (µM)
Answer with a number only, understood to be in µM.

Prompt line: Would you kindly share the measured Khydrolysis for 4S.6B: 5mut + N98D A104V A118S F122A K134P I182V E189P (protein) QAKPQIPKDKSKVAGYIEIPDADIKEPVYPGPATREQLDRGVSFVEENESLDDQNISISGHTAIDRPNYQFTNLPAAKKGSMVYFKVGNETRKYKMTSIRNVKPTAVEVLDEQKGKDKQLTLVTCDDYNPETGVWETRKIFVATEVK ?
Response line: 122.3
